# Tested on: GB-1 (Glioblastoma)
# assaySummary: combination Emax (second highest fraction inhibited in the dose matrix, 72 h); higher = more inhibition; extreme values may be limits of the assay
Reported combination Emax values for the following compounds.

[
  {
    "compound": "Cc1c2c(nn1C)CSCc1cc(n(C)n1)CSc1cc(c3ccccc3c1)OCCCc1c(C(=O)O)n(C)c3c-2c(Cl)ccc13 [AZD5991] + Cc1cc2ncnn2cc1Nc1ncc2c(n1)n(C1CCOCC1)c(=O)n2C [AZD7648] (first compound max 1 µM, 7x7, partner max 10 µM)",
    "combination Emax": 0.264
  },
  {
    "compound": "C[C@@H](c1ccc2nccn2c1)n1nnc2ncc(-c3cnn(C)c3)nc21 [Savolitinib] + Cc1c2c(nn1C)CSCc1cc(n(C)n1)CSc1cc(c3ccccc3c1)OCCCc1c(C(=O)O)n(C)c3c-2c(Cl)ccc13 [AZD5991] (first compound max 1 µM, 7x7, partner max 1 µM)",
    "combination Emax": 0.117
  },
  {
    "compound": "NC1(C(=O)N[C@@H](CCO)c2ccc(Cl)cc2)CCN(c2ncnc3[nH]ccc23)CC1 [Capivasertib] + CC(C)n1c(=O)n(C)c2cnc3cc(F)c(-c4ccc(OCCCN5CCCCC5)nc4)cc3c21 [AZD1390] (first compound max 10 µM, 7x7, partner max 0.3 µM)",
    "combination Emax": 0.275
  },
  {
    "compound": "C=CCn1c(=O)c2cnc(Nc3ccc(N4CCN(C)CC4)cc3)nc2n1-c1cccc(C(C)(C)O)n1 [AZD1775] + C1CN(CCC1(C(=O)N[C@@H](CCO)C2=CC=C(C=C2)Cl)N)C3=NC=NC4=C3C=CN4 [Capivasertib] (first compound max 3 µM, partner max 3 µM)",
    "combination Emax": 0.625
  },
  {
    "compound": "CCN(CCO)CCCOc1ccc2c(Nc3cc(CC(=O)Nc4cccc(F)c4)[nH]n3)ncnc2c1 [AZD2811] + C=CCn1c(=O)c2cnc(Nc3ccc(N4CCN(C)CC4)cc3)nc2n1-c1cccc(C(C)(C)O)n1 [AZD1775] (first compound max 1 µM, partner max 1 µM)",
    "combination Emax": 0.332
  },
  {
    "compound": "COc1cccc(OCCCN)c1-c1cc(Nc2cnc(C#N)cn2)n[nH]1 [Prexasertib] + O=C(c1cc(Cc2n[nH]c(=O)c3ccccc23)ccc1F)N1CCN(C(=O)C2CC2)CC1 [Olaparib] (first compound max 1 µM, 7x7, partner max 10 µM)",
    "combination Emax": 0.439
  },
  {
    "compound": "COc1cccc(OCCCN)c1-c1cc(Nc2cnc(C#N)cn2)n[nH]1 [Prexasertib] + C[C@@H]1COCCN1C2=NC(=NC(=C2)C3(CC3)[S@](=N)(=O)C)C4=C5C=CNC5=NC=C4 [AZD6738] (first compound max 1 µM, 7x7, partner max 10 µM)",
    "combination Emax": 0.691
  }
]

* * *

# System: IST-MES1 (Mesothelioma)
# assaySummary: combination Emax (second highest fraction inhibited in the dose matrix, 72 h); higher = more inhibition; extreme values may be limits of the assay
Quick rule for you: combination Emax at 0.2 or higher means rule met, lower means rule not met.

[
  {
    "compound": "CN(C)CCCOc1ccc(-c2ccc3ncc4c(c3c2)n(C2CCOCC2)c(=O)n4C)cn1 [AZD0156] + C[C@@H]1COCCN1C2=NC(=NC(=C2)C3(CC3)[S@](=N)(=O)C)C4=C5C=CNC5=NC=C4 [AZD6738] (first compound max 1 µM, 7x7, partner max 10 µM)",
    "category": "rule not met"
  },
  {
    "compound": "O=C(c1cc(Cc2n[nH]c(=O)c3ccccc23)ccc1F)N1CCN(C(=O)C2CC2)CC1 [Olaparib] + CN(CC[C@H](CSC1=CC=CC=C1)NC2=C(C=C(C=C2)S(=O)(=O)NC(=O)C3=CC=C(C=C3)N4CCC(CC4)[C@H](C5=CC=CC=C5C6=CC=C(C=C6)Cl)O)S(=O)(=O)C(F)(F)F)CCO [AZD4320] (first compound max 10 µM, 7x7, partner max 1 µM)",
    "category": "rule met"
  },
  {
    "compound": "C=CCn1c(=O)c2cnc(Nc3ccc(N4CCN(C)CC4)cc3)nc2n1-c1cccc(C(C)(C)O)n1 [AZD1775] + C[C@@H]1COCCN1C2=NC(=NC(=C2)C3(CC3)[S@](=N)(=O)C)C4=C5C=CNC5=NC=C4 [AZD6738] (first compound max 1 µM, partner max 10 µM)",
    "category": "rule met"
  },
  {
    "compound": "COc1cccc(OCCCN)c1-c1cc(Nc2cnc(C#N)cn2)n[nH]1 [Prexasertib] + O=C(c1cc(Cc2n[nH]c(=O)c3ccccc23)ccc1F)N1CCN(C(=O)C2CC2)CC1 [Olaparib] (first compound max 1 µM, 7x7, partner max 10 µM)",
    "category": "rule met"
  },
  {
    "compound": "C[C@@H](Oc1cc(-c2cnn(C3CCNCC3)c2)cnc1N)c1c(Cl)ccc(F)c1Cl [Crizotinib] + CC1=C(C(=CC=C1)Cl)NC(=O)C2=CN=C(S2)NC3=CC(=NC(=N3)C)N4CCN(CC4)CCO [Dasatinib] (first compound max 10 µM, 7x7, partner max 2 µM)",
    "category": "rule met"
  },
  {
    "compound": "Cc1cc2ncnn2cc1Nc1ncc2c(n1)n(C1CCOCC1)c(=O)n2C [AZD7648] + O=C(c1cc(Cc2n[nH]c(=O)c3ccccc23)ccc1F)N1CCN(C(=O)C2CC2)CC1 [Olaparib] (first compound max 10 µM, 7x7, partner max 10 µM)",
    "category": "rule met"
  },
  {
    "compound": "Cc1c2c(nn1C)CSCc1cc(n(C)n1)CSc1cc(c3ccccc3c1)OCCCc1c(C(=O)O)n(C)c3c-2c(Cl)ccc13 [AZD5991] + C1CN(CCC1(C(=O)N[C@@H](CCO)C2=CC=C(C=C2)Cl)N)C3=NC=NC4=C3C=CN4 [Capivasertib] (first compound max 1 µM, 7x7, partner max 3 µM)",
    "category": "rule not met"
  },
  {
    "compound": "CCc1c2c(nc3ccc(O)cc13)-c1cc3c(c(=O)n1C2)COC(=O)[C@]3(O)CC [SN-38] + CN(C)CCCOc1ccc(-c2ccc3ncc4c(c3c2)n(C2CCOCC2)c(=O)n4C)cn1 [AZD0156] (first compound max 0.3 µM, 7x7, partner max 1 µM)",
    "category": "rule met"
  },
  {
    "compound": "Cc1c2c(nn1C)CSCc1cc(n(C)n1)CSc1cc(c3ccccc3c1)OCCCc1c(C(=O)O)n(C)c3c-2c(Cl)ccc13 [AZD5991] + Cn1cnc2c(F)c(Nc3ccc(Br)cc3Cl)c(C(=O)NOCCO)cc21 [Selumetinib] (first compound max 1 µM, 7x7, partner max 3 µM)",
    "category": "rule met"
  },
  {
    "compound": "CN(CCO)CC[C@H](CSc1ccccc1)Nc1ccc(S(=O)(=O)NC(=O)c2ccc(N3CCC([C@@H](O)c4ccccc4-c4ccc(Cl)cc4)CC3)cc2)cc1S(=O)(=O)C(F)(F)F [AZD4320] + Cc1cc2ncnn2cc1Nc1ncc2c(n1)n(C1CCOCC1)c(=O)n2C [AZD7648] (first compound max 1 µM, 7x7, partner max 10 µM)",
    "category": "rule not met"
  },
  {
    "compound": "O=C(c1cc(Cc2n[nH]c(=O)c3ccccc23)ccc1F)N1CCN(C(=O)C2CC2)CC1 [Olaparib] + COc1nnc2ccc(N3CCC(c4ccc(OCCN5CCN(C)C(=O)[C@H]5C)cc4)CC3)nn12 [AZD5153] (first compound max 10 µM, 7x7, partner max 1 µM)",
    "category": "rule met"
  },
  {
    "compound": "CN(CCO)CC[C@H](CSc1ccccc1)Nc1ccc(S(=O)(=O)NC(=O)c2ccc(N3CCC([C@@H](O)c4ccccc4-c4ccc(Cl)cc4)CC3)cc2)cc1S(=O)(=O)C(F)(F)F [AZD4320] + CN(C)CCCOc1ccc(-c2ccc3ncc4c(c3c2)n(C2CCOCC2)c(=O)n4C)cn1 [AZD0156] (first compound max 1 µM, 7x7, partner max 1 µM)",
    "category": "rule not met"
  },
  {
    "compound": "CC(=O)c1c(C)c2cnc(Nc3ccc(N4CCNCC4)cn3)nc2n(C2CCCC2)c1=O [Palbociclib] + CC1(C)CCC(CN2CCN(c3ccc(C(=O)NS(=O)(=O)c4ccc(NCC5CCOCC5)c([N+](=O)[O-])c4)c(Oc4cnc5[nH]ccc5c4)c3)CC2)=C(c2ccc(Cl)cc2)C1 [Venetoclax] (first compound max 10 µM, 7x7, partner max 1 µM)",
    "category": "rule met"
  }
]

* * *

# Tested on: LK-2 (Squamous Cell Lung Carcinoma);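 also: after 72 h of two-drug dosing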
# assaySummary: Bliss excess, mean over the matrix (fraction); higher = more synergy

[
  {
    "molecule": "COc1cccc(OCCCN)c1-c1cc(Nc2cnc(C#N)cn2)n[nH]1 [Prexasertib] + CN(C)CCCOc1ccc(-c2ccc3ncc4c(c3c2)n(C2CCOCC2)c(=O)n4C)cn1 [AZD0156] (first compound max 1 µM, 7x7, partner max 1 µM)",
    "Bliss excess": -0.0181
  },
  {
    "molecule": "Cc1c2c(nn1C)CSCc1cc(n(C)n1)CSc1cc(c3ccccc3c1)OCCCc1c(C(=O)O)n(C)c3c-2c(Cl)ccc13 [AZD5991] + C[C@@H]1COCCN1C2=NC(=NC(=C2)C3(CC3)[S@](=N)(=O)C)C4=C5C=CNC5=NC=C4 [AZD6738] (first compound max 1 µM, 7x7, partner max 10 µM)",
    "Bliss excess": 0.0146
  }
]
